Each recorded value in this set is attributed to the supplement of paper PMC10567573.

Each record here notes measured protein stability index.
B1: TNNI2 (parent)
chain: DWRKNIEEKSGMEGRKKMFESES

variants of: B1; assay: protein stability index of a GFP-peptide fusion (GPS, HEK-293T) (PSI 1-6); higher = more stable; conditions: c terminus: native;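 note: lentivirally expressed fusions sorted by FACS into six bins by GFP to DsRed ratio, PSI derived from sequencing read proportions per bin multiplied by bin number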
The reply should be a number, written without any unit.

Solved cases (8 shown):
{"columns": ["seq-text", "protein stability index"],
 "data": [
  ["DWAKNIEEKSGMEGRKKMFESES [R3A]", 2.09],
  ["DWRKNIEEKSGMEGRCKMFESES [K16C]", 2.19],
  ["DWRKNIEEKSGMEGRKKMFESGS [E22G]", 5.04],
  ["DWRKNIEEKSGMKGRKKMFESES [E13K]", 2.94],
  ["DWRKNIEEKSGMEGRKKMFESKS [E22K]", 4.67],
  ["DPRKNIEEKSGMEGRKKMFESES [W2P]", 3.59],
  ["DWRKNIEPKSGMEGRKKMFESES [E8P]", 3.03],
  ["DWRKNIEEKQGMEGRKKMFESES [S10Q]", 2.97]
]}

Recorded protein stability index for DWRKNTEEKSGMEGRKKMFESES [I6T] , please?
3.26

Need protein stability index, item DWRKNIEEKSGMEGRKKMFESEF [S23F]
3.02

Value lookup for protein stability index; key = DWRKNIKEKSGMEGRKKMFESES [E7K]
2.62
